measurement notes: Moisture absorption measurement in a Constant Temperature & Humidity Chamber
Format: physicochemical
assay setup: 25° C., relative humidity 75%, after 5 days; Table 4, Examples 1-8
outcome measure: Moisture absorption rate, % (%)

CC(=O)NC1C(O)[C@H](O)C(CO)O[C@H]1OC1C(O)[C@H](O[C@@H]2C(CO)OC(O)C(O)C2O)OC(CO)[C@@H]1O (single isomer, unassigned) [Crystalline form B in Example 6, Lacto-N-triose II] ... 13.32
CC(=O)NC1C(O)[C@H](O)C(CO)O[C@H]1OC1C(O)[C@H](O[C@@H]2C(CO)OC(O)C(O)C2O)OC(CO)[C@@H]1O (single isomer, unassigned) [Crystalline form B in Example 5, Lacto-N-triose II] ... 13.79
CC(=O)NC1C(O)[C@H](O)C(CO)O[C@H]1OC1C(O)[C@H](O[C@@H]2C(CO)OC(O)C(O)C2O)OC(CO)[C@@H]1O (single isomer, unassigned) [Crystalline form B in Example 7, Lacto-N-triose II] ... 13.04
CC(=O)NC1C(O)[C@H](O)C(CO)O[C@H]1OC1C(O)[C@H](O[C@@H]2C(CO)OC(O)C(O)C2O)OC(CO)[C@@H]1O (single isomer, unassigned) [Crystalline form B in Example 8, Lacto-N-triose II] ... 13.61

---

measurement notes: Stability study in a Constant Temperature & Humidity Chamber (LNTII content by HPLC and appearance)
Format: physicochemical
assay setup: 40° C., relative humidity 75%, sealed with aluminum compound packing film, 1 month
Protocol: In this invention, high-performance liquid chromatography (HPLC) is used to detect the content of LNTII under the following detection conditions: Chromatographic column: Asahipak NH2P-504E 4.6 mm×250 mm, 5 μm, mobile phase: acetonitrile: water=65:35, flow rate: 1 mL/min, detector: UV-VIS detector, wavelength: 210 nm, column temperature: 30° C., sample volume: 10 μL, and the running time of 30 min. […]
outcome measure: Content, % (At the end of the 1st month) (%)

CC(=O)NC1C(O)[C@H](O)C(CO)O[C@H]1OC1C(O)[C@H](O[C@@H]2C(CO)OC(O)C(O)C2O)OC(CO)[C@@H]1O (some centres unmarked) [LNTII amorphous powder, Lacto-N-triose II, reference compound] ... 91.01
CC(=O)NC1C(O)[C@H](O)C(CO)O[C@H]1OC1C(O)[C@H](O[C@@H]2C(CO)OC(O)C(O)C2O)OC(CO)[C@@H]1O (single isomer, unassigned) [Crystalline form B in Example 3, Lacto-N-triose II] ... 96.92
CC(=O)NC1C(O)[C@H](O)C(CO)O[C@H]1OC1C(O)[C@H](O[C@@H]2C(CO)OC(O)C(O)C2O)OC(CO)[C@@H]1O (single isomer, unassigned) [Crystalline form B in Example 6, Lacto-N-triose II] ... 92.43
CC(=O)NC1C(O)[C@H](O)C(CO)O[C@H]1OC1C(O)[C@H](O[C@@H]2C(CO)OC(O)C(O)C2O)OC(CO)[C@@H]1O (single isomer, unassigned) [Crystalline form B in Example 8, Lacto-N-triose II] ... 96.48
CC(=O)NC1C(O)[C@H](O)C(CO)O[C@H]1OC1C(O)[C@H](O[C@@H]2C(CO)OC(O)C(O)C2O)OC(CO)[C@@H]1O (single isomer, unassigned) [Crystalline form B in Example 1, Lacto-N-triose II] ... 96.81
